Origin of values: patent US20170304442A1

Molecular target: T1, recombinant human WISP1/His (human, UniProt O95388 23-367)
T1 construct: also called hWISP1; recombinant human WISP1 protein; not shown: His tag
T1 sequence (looked up): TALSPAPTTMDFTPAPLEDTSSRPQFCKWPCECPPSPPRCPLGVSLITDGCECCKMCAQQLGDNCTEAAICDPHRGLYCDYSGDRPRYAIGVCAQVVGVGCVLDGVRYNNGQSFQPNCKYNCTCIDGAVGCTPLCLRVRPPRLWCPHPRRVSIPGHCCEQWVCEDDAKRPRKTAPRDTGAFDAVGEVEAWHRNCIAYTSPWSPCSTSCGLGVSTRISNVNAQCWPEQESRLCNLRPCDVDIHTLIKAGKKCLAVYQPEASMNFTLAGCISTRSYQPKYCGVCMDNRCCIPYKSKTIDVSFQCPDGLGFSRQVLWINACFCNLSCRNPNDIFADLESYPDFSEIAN
Test: SPR, IgG captured on anti-human Fc CM5 chip, human WISP1/His as analyte, 1:1 Langmuir fit
Please go through the items and note down their kon.
Provide the reading as a plain figure in M⁻¹ s⁻¹.

Request: Query: kon; subject: WIr2D6 (antibody, V domains shown, Tested as IgG (captured by anti-human Fc); also called Wlr2D6) VH: EVQLVQSGAEVKRSGASVKVSCKLSGDTLTDLSIHWVRQAPGKGLEWMGGFDFEDGEIVYGDKFKGRVTVTEDPSTDTAYMDLKRLTFEDTAIYYCATIKDIPGRYYFDFWGQGTLVTVSS VL: VIWMTQSPSSVSASVGDTVTITCRASQGIRSWLAWYQQKPGKAPKLLIYGASSLHSGVPSRFSGSGSGTYFTLTISSLQPEDFATYYCQQADSFPPWTFGQGTKVEIK
Result: 907000

Request: What about WIr2C11 (antibody, V domains shown, Tested as IgG (captured by anti-human Fc); also called Wlr2C11) VH: QVQLVESGGALVQPGGSLRLSCAASGFTFSDHWLSWVRQAPGKGLEWVSSISSSSRYIHYADSVKGRFTISRDNAKNSLYLQMNSLSAEDTAVYYCAREDTSMATNGFDVWGQGTMVTVSS VL: AIQLTQSPSSLSASVGDRVTITCRASQGIRNHLGWYQQKPGKAPKRLIYAASSLQSGVPSRFSGSGSGTEFTLTISGLQPEDFATYYCLQHNSYPFTFGQGTRLEIK ?
Result: 267000

Request: What about WIr2F6 (antibody, V domains shown, Tested as IgG (captured by anti-human Fc); also called Wlr2F6) VH: QMQLVQSGAEVKRPGASVKVSCKASGYSFTNFDINWVRQATGQGLEWMGWMDPNSGNSGSAPAFQGRVTMTRDTSIGTAYMELSGLTSEDTAVYYCARDDFYDSSGFDAWGQGTLVTVSS VL: QSVLTQPPSASGTPGQTVTVSCSGRSSNVGSNTVDWYQHLPGTAPKLLIYSSNRRPSGVPDRFSGSKSGTSASLAISGLQSEDEADYYCAAWDDSLNVYVFGTGTKLTVL ?
Result: 554000

Request: What about WIr2H3 (antibody, V domains shown, Tested as IgG (captured by anti-human Fc); also called Wlr2H3) VH: EVQLVQSGGGMVQPGGSLRLSCAASGFTFSDYYMDWVRQAPGQGLEWVGRIRHKAQGYTTEYAASVKGRFSISRDDSRSSLSLQMNSLKTEDTAVYYCAMVGGSRDWGQGTLVTVSS VL: QAGLTQPPSVSGAPGQRVTISCTGGSSNIGPGYAVHWYQQHPGRAPKLLIYTNNNRPSGVPDRFSGSRSGTSASLAITGLQAEDDAYYYCQSYDSSLSGSVFGGGTKLTVL ?
Result: 93500
